# Human AmyR3 potency [EC50 (pM)] listing for each entry below
Target: T1, human amylin-3 (a) receptor (human, UniProt P30988 25-474; O60896 24-148)
T1 sequence (looked up) 1: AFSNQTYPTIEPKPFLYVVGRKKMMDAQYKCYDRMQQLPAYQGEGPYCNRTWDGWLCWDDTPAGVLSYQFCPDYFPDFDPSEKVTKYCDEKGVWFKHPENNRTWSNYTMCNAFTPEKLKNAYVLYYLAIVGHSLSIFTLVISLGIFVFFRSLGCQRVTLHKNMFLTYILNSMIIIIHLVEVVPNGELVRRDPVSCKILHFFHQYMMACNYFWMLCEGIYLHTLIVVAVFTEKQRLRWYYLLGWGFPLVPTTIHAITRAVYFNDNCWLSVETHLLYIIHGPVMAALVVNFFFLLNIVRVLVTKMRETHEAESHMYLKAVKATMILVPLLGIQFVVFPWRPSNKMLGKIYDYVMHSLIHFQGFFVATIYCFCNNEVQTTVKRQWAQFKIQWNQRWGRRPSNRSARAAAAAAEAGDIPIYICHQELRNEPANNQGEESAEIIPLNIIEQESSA
T1 sequence (looked up) 2: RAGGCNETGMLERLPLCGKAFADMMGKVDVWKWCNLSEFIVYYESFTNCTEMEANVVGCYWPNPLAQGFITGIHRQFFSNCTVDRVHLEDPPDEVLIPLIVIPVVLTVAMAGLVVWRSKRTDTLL
Test: cell-based or functional assay
Starred links: 1 amine or outer side, 2 acyl side, 3 side chain; linkers in the order of their positions; H or OH if unused. Non-standard residues stand in square brackets, D forms with d. Groups on a side chain read outwards from the residue. *: point of attachment. Butyryl(4-SO2NHCO(CH2)16Tz) = O=C(CCCCCCCCCCCCCCCCc1nnn[nH]1)NS(=O)(=O)CCCC(=O)*; C20 diacid = O=C(O)CCCCCCCCCCCCCCCCCCC(=O)*; C18 diacid = O=C(O)CCCCCCCCCCCCCCCCC(=O)*; C16 diacid = O=C(O)CCCCCCCCCCCCCCC(=O)*; γGlu = O=C(O)[C@H](CCC(=O)[*:2])N[*:1]; Trx = NC[C@H]1CC[C@H](C(=O)O)CC1; AEEA = NCCOCCOCC(=O)O; Aib = CC(C)(N)C(=O)O
Note: a bare number is incomplete; add the unit.

As a guide, the following entries are already answered.
Per the records, this binder ( Compound 0562 (peptide) peptide: H[Aib]EGTFTSDVSSYLEEQAARK([AEEA-AEEA-γGlu-C20 diacid])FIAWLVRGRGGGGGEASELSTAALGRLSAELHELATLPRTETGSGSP-NH2 ) has Human AmyR3 potency [EC50 (pM)] equal to 4.1 pM

Quick note, Human AmyR3 potency [EC50 (pM)] for Compound 0504 (peptide) peptide: H[Aib]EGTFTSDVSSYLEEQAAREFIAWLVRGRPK([AEEA-AEEA-γGlu-Trx-C20 diacid])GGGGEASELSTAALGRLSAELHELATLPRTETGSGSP-NH2 landed at 6 pM

Recorded Human AmyR3 potency [EC50 (pM)] (binder Compound 0580 (peptide) peptide: H[Aib]EGTFTSDVSSYLEEQAARK([AEEA-AEEA-γGlu-C20 diacid])FIAWLVRGGASELSTAALGRLSAELHELATLPRTETGSGSP-NH2 ): 9.3 pM

response.value for Compound 0292 (peptide) peptide: H[Aib]EGTFTSDK([AEEA-AEEA-γGlu-C16 diacid])SSYLEEQAAREFIAWLVRGRGGGGGASELSTAALGRLSK([AEEA-AEEA-γGlu-C16 diacid])ELHELATLPRTETGSGSP-NH2 (field: Human AmyR3 potency [EC50 (pM)]) = 33.8 pM

Measured Human AmyR3 potency [EC50 (pM)], Compound 0102 (peptide) peptide: H[Aib]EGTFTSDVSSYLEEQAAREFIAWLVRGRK(Butyryl(4-SO2NHCO(CH2)16Tz))ELSTAALGRLSAELHELATLPRTETGSGSP-NH2 : 9.8 pM

Could you now look at the following binder, please?
Form field Human AmyR3 potency [EC50 (pM)], entry Compound 0040 (peptide) peptide: H[Aib]EGTFTSDVSSYLEGQAAK([AEEA-AEEA-γGlu-C18 diacid])EFIAWLVRGRGGGGEASELSTAALGRLSAELHELATLPRTETGSGSP-NH2 : 7.7 pM
